# test-details: 13C NMR pH titration of sodium lactate/lactic acid solutions, nonlinear least squares fit of Equation 5
# Format: physicochemical
# test-parameters: carboxyl group of lactic acid, about 1 weight % sodium lactate and lactic acid, pH about 2 to about 5.5, fit of 13C chemical shift vs pH
measurement-type: pKa

• CC(O)C(=O)O (stereo not shown) = 3.73

These data points were gathered from patent US11892435B2.
